tested-target: human vanilloid-1 (hVR-1) in hVR-1-HEK293 cell line (Homo sapiens)
Sequence (Q8NER1 whole entry): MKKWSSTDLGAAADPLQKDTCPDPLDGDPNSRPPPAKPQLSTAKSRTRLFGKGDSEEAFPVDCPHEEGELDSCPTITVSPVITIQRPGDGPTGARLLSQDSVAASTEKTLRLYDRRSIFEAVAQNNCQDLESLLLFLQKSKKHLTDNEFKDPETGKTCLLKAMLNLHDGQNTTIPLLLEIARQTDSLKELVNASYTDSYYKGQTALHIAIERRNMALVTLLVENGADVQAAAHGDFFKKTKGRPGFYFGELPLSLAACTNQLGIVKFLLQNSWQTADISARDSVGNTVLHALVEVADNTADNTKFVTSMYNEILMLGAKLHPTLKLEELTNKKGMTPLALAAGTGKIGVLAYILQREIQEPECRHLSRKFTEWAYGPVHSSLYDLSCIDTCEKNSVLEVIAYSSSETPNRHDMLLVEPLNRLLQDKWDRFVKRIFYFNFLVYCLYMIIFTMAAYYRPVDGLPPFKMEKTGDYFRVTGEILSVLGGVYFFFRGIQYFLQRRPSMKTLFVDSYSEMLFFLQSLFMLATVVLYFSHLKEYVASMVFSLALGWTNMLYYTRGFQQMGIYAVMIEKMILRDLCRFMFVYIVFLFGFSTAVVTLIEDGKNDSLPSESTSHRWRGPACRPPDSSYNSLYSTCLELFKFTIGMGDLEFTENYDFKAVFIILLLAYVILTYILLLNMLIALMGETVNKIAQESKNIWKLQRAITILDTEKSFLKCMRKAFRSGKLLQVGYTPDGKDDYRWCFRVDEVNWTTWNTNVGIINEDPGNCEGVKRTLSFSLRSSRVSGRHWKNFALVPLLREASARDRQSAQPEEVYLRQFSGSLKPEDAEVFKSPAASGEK
test-description: Inhibitory effect on calcium influx via a vanilloid receptor (capsaicin-stimulated, Fluo-3/AM)
test-context: hVR-1-HEK293 cells, 1 μM of capsaicin, compounds 0.015˜2000 nM; read-out: I.A. (inhibitory activity), IC50 on intracellular calcium influx
pIC50: −log10 of the molar value.
Would you kindly list pIC50 for each of these molecules?

Recorded results for 5 molecules are shown here.
CCc1ccc(N2c3cccc(-c4nc5ccc(C(C)(C)C)cc5[nH]4)c3OC[C@@H]2CO)nc1 7.00 to 7.70
Cc1ccc(N2CCOc3c(-c4nc5cc(Cl)c(Cl)cc5[nH]4)cccc32)nc1 7.00 to 7.70
Cc1ccc(N2c3cccc(-c4nc5cc(Cl)c(Cl)cc5[nH]4)c3OC[C@@H]2CO)nc1 > 7.70
COC[C@H]1COc2c(-c3nc4c(F)cc(Br)cc4[nH]3)cccc2N1c1ccc(C)cn1 > 7.70
CCc1ccc(N2c3cccc(-c4nc5cc(F)c(Cl)cc5[nH]4)c3OC[C@@H]2CO)nc1 7.00 to 7.70

// for each molecule below, give its pIC50
1. Cc1ccc(N2c3cccc(-c4nc5c(Br)cc(C(F)(F)F)cc5[nH]4)c3OC[C@@H]2CO)nc1
2. COC[C@H]1COc2c(-c3nc4ccc(F)cc4[nH]3)cccc2N1c1ccc(C)cn1
3. C=Cc1ccc(N2c3cccc(-c4nc5cc(F)c(F)cc5[nH]4)c3OC[C@@H]2CO)nc1

1: > 7.70; 2: 7.00 to 7.70; 3: 7.00 to 7.70

# lookup: pIC50 of `COC[C@H]1COc2c(-c3nc4cc(Cl)c(Cl)cc4[nH]3)cccc2N1c1ccc(C)cn1` > 7.70
